Hey, just so you know, these numbers are from patent US8053573B2.

# assay: Spectral characteristics: molar extinction coefficient and specific absorbance
# Type: physicochemical
# conditionDescription: ethyl acetate, 10 μg/ml
experimentalReadout: Wavelength of maximum specific absorbance UVA

Below: 5 molecules and their reported Wavelength of maximum specific absorbance UVA.
>  <molecule>
COc1ccc(-c2nnc(-c3ccc(C#N)cc3)nc2-c2ccc(OC)cc2)cc1

>  <measuredResult>
350

$$$$
>  <molecule>
COc1ccc(-c2nnc(-c3ccccc3O)nc2-c2ccc(OC)cc2)cc1

>  <measuredResult>
335

$$$$
>  <molecule>
CCCCC(CC)COc1ccc(-c2nc(-c3ccc(OC)cc3)nc(-c3ccc(OCC(CC)CCCC)cc3O)n2)c(O)c1 (stereo not shown) [Tinosorb S ®, reference compound]

>  <measuredResult>
at 345

$$$$
>  <molecule>
COc1ccc(C(=O)CC(=O)c2ccc(C(C)(C)C)cc2)cc1 [Parsol 1789 ®, reference compound]

>  <measuredResult>
at 360

$$$$
>  <molecule>
CC(C)(C)CC(C)(C)c1cc(Cc2cc(C(C)(C)CC(C)(C)C)cc(-n3nc4ccccc4n3)c2O)c(O)c(-n2nc3ccccc3n2)c1 [Tinosorb M ®, reference compound]

>  <measuredResult>
at 345

$$$$

What does the record list as Wavelength of maximum specific absorbance UVA for "Oc1ccccc1-c1nnc(-c2ccccc2)c(-c2ccccc2)n1" ? at 330

What does the record list as Wavelength of maximum specific absorbance UVA for "Oc1ccc(-c2nnc(-c3ccccc3)c(-c3ccccc3)n2)cc1" ? at 330

What does the record list as Wavelength of maximum specific absorbance UVA for "COc1ccc(-c2nnc(N)nc2-c2ccc(OC)cc2)cc1" ? at 360

* * *

# assay: Photostability in solution in a chemical solvent (Suntest CPS+)
# Format: physicochemical
# conditionDescription: 25 μg deposited from methanol, Suntest irradiation 20 MED, absorbance vs non-irradiated control; in % (unit assumed)
Recorded measurements of Photostability at 20 MED mean, one per entry
When you answer, write just the number.

Below: 5 molecules and their reported Photostability at 20 MED mean.
>  <molecule>
COc1ccc(-c2nnc(N)nc2-c2ccc(OC)cc2)cc1

>  <Photostability at 20 MED mean>
61.14

$$$$
>  <molecule>
COc1ccc(-c2nnc(-c3cc(O)c(O)c(O)c3)nc2-c2ccc(OC)cc2)cc1

>  <Photostability at 20 MED mean>
46.42

$$$$
>  <molecule>
CCN(CC)c1ccc(-c2nnc(O)nc2-c2ccc(N(CC)CC)cc2)cc1

>  <Photostability at 20 MED mean>
57.37

$$$$
>  <molecule>
COc1ccc(-c2nnc(-c3ccc(OC)cc3)c(-c3ccc(OC)cc3)n2)cc1

>  <Photostability at 20 MED mean>
30.83

$$$$
>  <molecule>
COc1ccc(-c2nnc(-c3cccc(C#N)c3)nc2-c2ccc(OC)cc2)cc1

>  <Photostability at 20 MED mean>
97.67

$$$$

What does the record list as Photostability at 20 MED mean for "COc1ccc(-c2nnc(-c3ccc(O)cc3)nc2-c2ccc(OC)cc2)cc1" ? 85.5

What does the record list as Photostability at 20 MED mean for CCCCC(CC)COC(=O)C=Cc1ccc(OC)cc1 (stereo not drawn) [Parsol MCX ®, reference compound] ? 11.63

What does the record list as Photostability at 20 MED mean for COc1ccc(C(=O)CC(=O)c2ccc(C(C)(C)C)cc2)cc1 [Parsol 1789 ®, reference compound] ? 6.26

What does the record list as Photostability at 20 MED mean for "COc1ccc(-c2nnc(-c3ccccc3C#N)nc2-c2ccc(OC)cc2)cc1" ? 91.43

What does the record list as Photostability at 20 MED mean for "COc1ccc(-c2nnc(-c3ccccc3O)nc2-c2ccc(OC)cc2)cc1" ? 98.72

What does the record list as Photostability at 20 MED mean for "COc1ccc(-c2nnc(-c3ccc(C#N)cc3)nc2-c2ccc(OC)cc2)cc1" ? 47.81

What does the record list as Photostability at 20 MED mean for "Oc1ccc(-c2nnc(-c3ccccc3)c(-c3ccccc3)n2)cc1" ? 95.33

* * *

# assay: Spectral characteristics: molar extinction coefficient and specific absorbance
# Format: physicochemical
# conditionDescription: A1cm^1%; ethyl acetate, 10 μg/ml
Recorded measurements of Maximum specific absorbance UVB, one per entry
When you answer, write just the number.

Below: 6 compounds and their reported Maximum specific absorbance UVB.
>  <compound>
CC(C)(C)CC(C)(C)c1cc(Cc2cc(C(C)(C)CC(C)(C)C)cc(-n3nc4ccccc4n3)c2O)c(O)c(-n2nc3ccccc3n2)c1 [Tinosorb M ®, reference compound]

>  <experimentalReadout>
Maximum specific absorbance UVB

>  <measuredResult>
556

$$$$
>  <compound>
CCCCC(CC)COc1ccc(-c2nc(-c3ccc(OC)cc3)nc(-c3ccc(OCC(CC)CCCC)cc3O)n2)c(O)c1 (stereo not drawn) [Tinosorb S ®, reference compound]

>  <experimentalReadout>
Maximum specific absorbance UVB

>  <measuredResult>
751

$$$$
>  <compound>
COc1ccc(-c2nnc(-c3ccc(OC)cc3)c(-c3ccc(OC)cc3)n2)cc1

>  <experimentalReadout>
Maximum specific absorbance UVB

>  <measuredResult>
982

$$$$
>  <compound>
COc1ccc(-c2nnc(-c3ccc(O)cc3)nc2-c2ccc(OC)cc2)cc1

>  <experimentalReadout>
Maximum specific absorbance UVB

>  <measuredResult>
809

$$$$
>  <compound>
COc1ccc(-c2nnc(-c3cc(O)c(O)c(O)c3)nc2-c2ccc(OC)cc2)cc1

>  <experimentalReadout>
Maximum specific absorbance UVB

>  <measuredResult>
747

$$$$
>  <compound>
CCCCC(CC)COC(=O)C=Cc1ccc(OC)cc1 (stereo not drawn) [Parsol MCX ®, reference compound]

>  <experimentalReadout>
Maximum specific absorbance UVB

>  <measuredResult>
848

$$$$

Field: next compound
What does the record list as Maximum specific absorbance UVB for "COc1ccc(-c2nnc(-c3cccc(C#N)c3)nc2-c2ccc(OC)cc2)cc1" ? 721

* * *

# assay: Spectral characteristics: molar extinction coefficient and specific absorbance
# Format: physicochemical
# conditionDescription: A1cm^1%; ethyl acetate, 10 μg/ml
experimentalReadout: Maximum specific absorbance UVC

Below: 3 molecules and their reported Maximum specific absorbance UVC.
>  <molecule>
COc1ccc(C(=O)CC(=O)c2ccc(C(C)(C)C)cc2)cc1 [Parsol 1789 ®, reference compound]

>  <Maximum specific absorbance UVC>
278 at

$$$$
>  <molecule>
COc1ccc(-c2nnc(N)nc2-c2ccc(OC)cc2)cc1 [JR77]

>  <Maximum specific absorbance UVC>
631

$$$$
>  <molecule>
Oc1ccc(-c2nnc(-c3ccccc3)c(-c3ccccc3)n2)cc1 [JR68]

>  <Maximum specific absorbance UVC>
702

$$$$

Field: next molecule
What does the record list as Maximum specific absorbance UVC for COc1ccc(-c2nnc(-c3ccc(C#N)cc3)nc2-c2ccc(OC)cc2)cc1 [JR107] ? 655 at
